The following compounds are listed with their measured minimal effective dose values.
System: rats
Assay: Pedal withdrawal reflex (PWR) scoring during intravenous infusion (analgaesic potency)
Assay type: in vivo
Conditions: rat, i.v. infusion, dose to PWR = 1, mean (SEM), read-out: Analgaesia potency: minimal dose for loss of pedal withdrawal reflex (SEM)
Attribute Measured: minimal effective dose (mg/kg)

[[record]]
compound = "CC(C)OC(=O)CCNC1(c2cccs2)CCCCC1=O (stereo not shown) [20a]"
attribute_measured = "minimal effective dose"
value_modifier = ">"
reading = 200

[[record]]
compound = "CC(C)OC(=O)CCNC1(c2ccccc2)CCCCC1=O (stereo not shown)"
attribute_measured = "minimal effective dose"
value_modifier = ">"
reading = 200

[[record]]
compound = "CC(C)OC(=O)CCNC1(c2ccccc2F)CCCCC1=O (stereo not shown)"
attribute_measured = "minimal effective dose"
value_modifier = "="
reading = 62

[[record]]
compound = "COC(=O)CCCCNC1(c2cccc(Cl)c2)CCCCC1=O (stereo not shown) [10b]"
attribute_measured = "minimal effective dose"
value_modifier = "="
reading = 61

[[record]]
compound = "CC(C)OC(=O)CCNC1(c2cccc(OC(F)(F)F)c2)CCCCC1=O (stereo not shown) [14a]"
attribute_measured = "minimal effective dose"
value_modifier = ">"
reading = 200

[[record]]
compound = "CC(C)OC(=O)CCNC1(c2ccccc2Cl)CCCCC1=O (stereo not shown)"
attribute_measured = "minimal effective dose"
value_modifier = "="
reading = 37

[[record]]
compound = "COC(=O)CCCCNC1(c2ccc(C(F)(F)F)cc2)CCCCC1=O (stereo not shown) [18b]"
attribute_measured = "minimal effective dose"
value_modifier = ">"
reading = 200

[[record]]
compound = "Cc1ccccc1C1(NCCC(=O)OC(C)C)CCCCC1=O (stereo not shown)"
attribute_measured = "minimal effective dose"
value_modifier = ">"
reading = 200

[[record]]
compound = "COc1ccc(C2(NCCC(=O)OC(C)C)CCCCC2=O)cc1 (stereo not shown) [17a]"
attribute_measured = "minimal effective dose"
value_modifier = ">"
reading = 200

[[record]]
compound = "CC(C)OC(=O)CCNC1(c2ccccc2OC(F)(F)F)CCCCC1=O (stereo not shown)"
attribute_measured = "minimal effective dose"
value_modifier = "="
reading = 62

[[record]]
compound = "COC(=O)CCCCNC1(c2cccs2)CCCCC1=O (stereo not shown) [20b]"
attribute_measured = "minimal effective dose"
value_modifier = "="
reading = 74

[[record]]
compound = "COC(=O)CCCCNC1(c2ccccc2Cl)CCCCC1=O (stereo not shown)"
attribute_measured = "minimal effective dose"
value_modifier = "="
reading = 44

[[record]]
compound = "CNC1(c2ccccc2Cl)CCCCC1=O (stereo not shown)"
attribute_measured = "minimal effective dose"
value_modifier = "="
reading = 28

[[record]]
compound = "COC(=O)CCCCNC1(c2ccccc2OC(F)(F)F)CCCCC1=O (stereo not shown)"
attribute_measured = "minimal effective dose"
value_modifier = ">"
reading = 200

[[record]]
compound = "COC(=O)CCCCNC1(c2ccccc2C(F)(F)F)CCCCC1=O (stereo not shown)"
attribute_measured = "minimal effective dose"
value_modifier = "="
reading = 156

[[record]]
compound = "CC(C)OC(=O)CCNC1(c2cccc(Cl)c2)CCCCC1=O (stereo not shown) [10a]"
attribute_measured = "minimal effective dose"
value_modifier = "="
reading = 58

[[record]]
compound = "CC(C)OC(=O)CCNC1(c2ccc(Cl)cc2)CCCCC1=O (stereo not shown) [15a]"
attribute_measured = "minimal effective dose"
value_modifier = ">"
reading = 200

[[record]]
compound = "COC(=O)CCCCNC1(c2ccccc2)CCCCC1=O (stereo not shown)"
attribute_measured = "minimal effective dose"
value_modifier = "="
reading = 45

[[record]]
compound = "COC(=O)CCCCNC1(c2ccc(Cl)cc2)CCCCC1=O (stereo not shown) [15b]"
attribute_measured = "minimal effective dose"
value_modifier = "="
reading = 100

[[record]]
compound = "CC(C)OC(=O)CCNC1(c2cccc(C(F)(F)F)c2)CCCCC1=O (stereo not shown) [13a]"
attribute_measured = "minimal effective dose"
value_modifier = ">"
reading = 200

[[record]]
compound = "COc1ccccc1C1(NCCC(=O)OC(C)C)CCCCC1=O (stereo not shown)"
attribute_measured = "minimal effective dose"
value_modifier = ">"
reading = 200

[[record]]
compound = "CC(C)OC(=O)CCNC1(c2ccccc2C(F)(F)F)CCCCC1=O (stereo not shown)"
attribute_measured = "minimal effective dose"
value_modifier = "="
reading = 64

[[record]]
compound = "COC(=O)CCCCNC1(c2ccc(OC(F)(F)F)cc2)CCCCC1=O (stereo not shown) [19b]"
attribute_measured = "minimal effective dose"
value_modifier = ">"
reading = 200

[[record]]
compound = "COC(=O)CCCCNC1(c2ccccc2OC)CCCCC1=O (stereo not shown)"
attribute_measured = "minimal effective dose"
value_modifier = "="
reading = 49

[[record]]
compound = "COC(=O)CCCCNC1(c2cccc(OC)c2)CCCCC1=O (stereo not shown) [12b]"
attribute_measured = "minimal effective dose"
value_modifier = "="
reading = 58

